- Test system: 653999-131-R-J2-PDC complex spheroids, growth inhibition
- method-description: Anticancer human tumor 653999-131-R-J2-PDC patient-derived lung adenocarcinoma cell line growth inhibition [RAS]
- experimental-setup: second compound 0.03 µM; first compound 0.003 µM; stronger effect = lower value
This listing pairs compounds with measured viability, T/C.

{"columns": ["compound", "viability, T/C, %"],
 "data": [
  ["CC1(C)CCC(Nc2ncc(C(F)(F)F)c(-c3c[nH]c4c(P(C)(C)=O)c(C#N)ccc34)n2)CN1 (centres undefined) + CCn1c(-c2cc(N3CCN(C)CC3)cnc2C(C)OC)c2c3cc(ccc31)-c1csc(n1)CC(NC(=O)C1CC1C)C(=O)N1CCCC(N1)C(=O)OCC(C)(C)C2", 18.3],
  ["CCc1c2c(nc3ccc(O)cc13)-c1cc3c(c(=O)n1C2)COC(=O)[C@]3(O)CC + CCn1c(-c2cccnc2C(C)OC)c2c3cc(ccc31)N1CCOC(CC(NC(=O)C(C(C)C)N(C)C(=O)C3(F)CCN(C(=O)C#CC(C)(C)N(C)C)CC3)C(=O)N3CCCC(N3)C(=O)OCC(C)(C)C2)C1", 75.7],
  ["CC1(C)CCC(Nc2ncc(C(F)(F)F)c(-c3c[nH]c4c(P(C)(C)=O)c(C#N)ccc34)n2)CN1 (centres undefined) + CCn1c(-c2cccnc2C(C)OC)c2c3cc(ccc31)N1CCOC(CC(NC(=O)C(C(C)C)N(C)C(=O)C3(F)CCN(C(=O)C#CC(C)(C)N(C)C)CC3)C(=O)N3CCCC(N3)C(=O)OCC(C)(C)C2)C1", 83.9],
  ["CCc1c2c(nc3ccc(O)cc13)-c1cc3c(c(=O)n1C2)COC(=O)[C@]3(O)CC + CCn1c(-c2cc(N3CCN(C)CC3)cnc2C(C)OC)c2c3cc(ccc31)-c1csc(n1)CC(NC(=O)C1CC1C)C(=O)N1CCCC(N1)C(=O)OCC(C)(C)C2", 18.2]
]}

###

- System: 653999-131-R-J2-PDC complex spheroids, growth inhibition
- method-description: Anticancer human tumor 653999-131-R-J2-PDC cell line growth inhibition [RAS];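 further: spheroids exposed to the agents for seven days before the readout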
- experimental-setup: second compound 0.0949 µM; first compound 0.0316 µM; stronger effect = lower value
- Description: RAS pathway inhibitors in Combinations in Complex Spheroids A high-throughput screen of multi-cell type tumor spheroids was designed to identify active combinations of RAS pathway inhibitors and targeted small molecules. Complex spheroids include a stromal component modeled by human endothelial cells (HUVEC) and fibroblasts modeled by human mesenchymal stem cells (MSCs). […] Compounds. […] If the clinical Cmax for an agent had not been determined, the highest concentration tested was 10 microM. […]
value-type: viability, T/C (%)

{"columns": ["compound", "system-name", "value-type", "recorded-value"],
 "data": [
  ["CC1(O)CCCC1n1c(=O)c(C(F)F)cc2cnc(NC3CCN(S(C)(=O)=O)CC3)nc21 (stereo not given) + CCn1c(-c2cc(N3CCN(C)CC3)cnc2C(C)OC)c2c3cc(ccc31)-c1csc(n1)CC(NC(=O)C1CC1C)C(=O)N1CCCC(N1)C(=O)OCC(C)(C)C2", "653999-131-R-J2-PDC complex spheroids, growth inhibition", "viability, T/C", 27.2],
  ["CC(Nc1ccc2c(c1)OCCn1cc(N3C(=O)OCC3C(F)F)nc1-2)C(N)=O (stereo not given) + CCn1c(-c2cccnc2C(C)OC)c2c3cc(ccc31)N1CCOC(CC(NC(=O)C(C(C)C)N(C)C(=O)C3(F)CCN(C(=O)C#CC(C)(C)N(C)C)CC3)C(=O)N3CCCC(N3)C(=O)OCC(C)(C)C2)C1", "653999-131-R-J2-PDC complex spheroids, growth inhibition", "viability, T/C", 85.8],
  ["O=C(c1ccc(F)c(F)c1Nc1ccc(I)cc1F)N1CC(O)([C@@H]2CCCCN2)C1 + CCn1c(-c2cccnc2C(C)OC)c2c3cc(ccc31)N1CCOC(CC(NC(=O)C(C(C)C)N(C)C(=O)C3(F)CCN(C(=O)C#CC(C)(C)N(C)C)CC3)C(=O)N3CCCC(N3)C(=O)OCC(C)(C)C2)C1", "653999-131-R-J2-PDC complex spheroids, growth inhibition", "viability, T/C", 66.5],
  ["CC(C)NCC(C(=O)N1CCN(c2ncnc3c2C(C)CC3O)CC1)c1ccc(Cl)cc1 (stereo not given) + CCn1c(-c2cc(N3CCN(C)CC3)cnc2C(C)OC)c2c3cc(ccc31)-c1csc(n1)CC(NC(=O)C1CC1C)C(=O)N1CCCC(N1)C(=O)OCC(C)(C)C2", "653999-131-R-J2-PDC complex spheroids, growth inhibition", "viability, T/C", 27.3],
  ["Cc1nc(N2CCC3(CC2)COC(C)C3N)c(CO)nc1Sc1ccnc(N)c1Cl (stereo not given) + CCn1c(-c2cccnc2C(C)OC)c2c3cc(ccc31)N1CCOC(CC(NC(=O)C(C(C)C)N(C)C(=O)C3(F)CCN(C(=O)C#CC(C)(C)N(C)C)CC3)C(=O)N3CCCC(N3)C(=O)OCC(C)(C)C2)C1", "653999-131-R-J2-PDC complex spheroids, growth inhibition", "viability, T/C", 92],
  ["CC(Nc1ccc2c(c1)OCCn1cc(N3C(=O)OCC3C(F)F)nc1-2)C(N)=O (stereo not given) + CCn1c(-c2cc(N3CCN(C)CC3)cnc2C(C)OC)c2c3cc(ccc31)-c1csc(n1)CC(NC(=O)C1CC1C)C(=O)N1CCCC(N1)C(=O)OCC(C)(C)C2", "653999-131-R-J2-PDC complex spheroids, growth inhibition", "viability, T/C", 27.4],
  ["CCC(CC)c1cc(NC2CCC(N)C2)n2nccc2n1 (stereo not given) + CCn1c(-c2cccnc2C(C)OC)c2c3cc(ccc31)N1CCOC(CC(NC(=O)C(C(C)C)N(C)C(=O)C3(F)CCN(C(=O)C#CC(C)(C)N(C)C)CC3)C(=O)N3CCCC(N3)C(=O)OCC(C)(C)C2)C1", "653999-131-R-J2-PDC complex spheroids, growth inhibition", "viability, T/C", 97.5],
  ["CC(C)NCC(C(=O)N1CCN(c2ncnc3c2C(C)CC3O)CC1)c1ccc(Cl)cc1 (stereo not given) + CCn1c(-c2cccnc2C(C)OC)c2c3cc(ccc31)N1CCOC(CC(NC(=O)C(C(C)C)N(C)C(=O)C3(F)CCN(C(=O)C#CC(C)(C)N(C)C)CC3)C(=O)N3CCCC(N3)C(=O)OCC(C)(C)C2)C1", "653999-131-R-J2-PDC complex spheroids, growth inhibition", "viability, T/C", 109],
  ["C[C@@H](NC(=O)c1ncnc(N)c1Cl)c1ncc(C(=O)Nc2cc(C(F)(F)F)c(Cl)cn2)s1 + CCn1c(-c2cccnc2C(C)OC)c2c3cc(ccc31)N1CCOC(CC(NC(=O)C(C(C)C)N(C)C(=O)C3(F)CCN(C(=O)C#CC(C)(C)N(C)C)CC3)C(=O)N3CCCC(N3)C(=O)OCC(C)(C)C2)C1", "653999-131-R-J2-PDC complex spheroids, growth inhibition", "viability, T/C", 113],
  ["Cc1nc(N2CCC3(CC2)COC(C)C3N)c(CO)nc1Sc1ccnc(N)c1Cl (stereo not given) + CCn1c(-c2cc(N3CCN(C)CC3)cnc2C(C)OC)c2c3cc(ccc31)-c1csc(n1)CC(NC(=O)C1CC1C)C(=O)N1CCCC(N1)C(=O)OCC(C)(C)C2", "653999-131-R-J2-PDC complex spheroids, growth inhibition", "viability, T/C", 21.4],
  ["CCN1CCN(Cc2ccc(Nc3ncc(F)c(-c4cc(F)c5nc(C)n(C(C)C)c5c4)n3)nc2)CC1 + CCn1c(-c2cccnc2C(C)OC)c2c3cc(ccc31)N1CCOC(CC(NC(=O)C(C(C)C)N(C)C(=O)C3(F)CCN(C(=O)C#CC(C)(C)N(C)C)CC3)C(=O)N3CCCC(N3)C(=O)OCC(C)(C)C2)C1", "653999-131-R-J2-PDC complex spheroids, growth inhibition", "viability, T/C", 79.5],
  ["C=CC(=O)N1CCN(c2nc(OCC3CCCN3C)nc3c(F)c(-c4nc(N)cc(C)c4C(F)(F)F)c(Cl)cc23)C(C)C1 (stereo not given) + CCn1c(-c2cccnc2C(C)OC)c2c3cc(ccc31)N1CCOC(CC(NC(=O)C(C(C)C)N(C)C(=O)C3(F)CCN(C(=O)C#CC(C)(C)N(C)C)CC3)C(=O)N3CCCC(N3)C(=O)OCC(C)(C)C2)C1", "653999-131-R-J2-PDC complex spheroids, growth inhibition", "viability, T/C", 112],
  ["Nc1ccn(C2OC(CO)C(O)C2(F)F)c(=O)n1 (stereo not given) + CCn1c(-c2cccnc2C(C)OC)c2c3cc(ccc31)N1CCOC(CC(NC(=O)C(C(C)C)N(C)C(=O)C3(F)CCN(C(=O)C#CC(C)(C)N(C)C)CC3)C(=O)N3CCCC(N3)C(=O)OCC(C)(C)C2)C1", "653999-131-R-J2-PDC complex spheroids, growth inhibition", "viability, T/C", 53.8],
  ["CCN1CCN(Cc2ccc(Nc3ncc(F)c(-c4cc(F)c5nc(C)n(C(C)C)c5c4)n3)nc2)CC1 + CCn1c(-c2cc(N3CCN(C)CC3)cnc2C(C)OC)c2c3cc(ccc31)-c1csc(n1)CC(NC(=O)C1CC1C)C(=O)N1CCCC(N1)C(=O)OCC(C)(C)C2", "653999-131-R-J2-PDC complex spheroids, growth inhibition", "viability, T/C", 15.7],
  ["CCC(CC)c1cc(NC2CCC(N)C2)n2nccc2n1 (stereo not given) + CCn1c(-c2cc(N3CCN(C)CC3)cnc2C(C)OC)c2c3cc(ccc31)-c1csc(n1)CC(NC(=O)C1CC1C)C(=O)N1CCCC(N1)C(=O)OCC(C)(C)C2", "653999-131-R-J2-PDC complex spheroids, growth inhibition", "viability, T/C", 29.3]
]}
